Reported Kd by item:
TARGET: T1, biotinylated CRH (human and mouse, not fully specified; biotinylated, position not stated)
T1 construct: also called Biotin-CRH; biotin-labeled CRH
T1 peptide: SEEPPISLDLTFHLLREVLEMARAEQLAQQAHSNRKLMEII
MEASUREMENT PROTOCOL: Octet BLI, biotinylated CRH on SA sensor

| BINDER | PROPERTY | MEAS VALUE |
| --- | --- | --- |
| PR302334-24 (antibody, human IgG1, kappa, V domains shown, Humanized variant of PR302334) VH: EVQLVESGGGLVKPGGSLRLSCAASGFTFSTYAMSWVRQAPGKGLEWVASIRSGGTTYYPDSVKGRFTISRDNAKNSLYLQMNSLRAEDTAVYYCTRGIDWGQGTTVTVSS VL: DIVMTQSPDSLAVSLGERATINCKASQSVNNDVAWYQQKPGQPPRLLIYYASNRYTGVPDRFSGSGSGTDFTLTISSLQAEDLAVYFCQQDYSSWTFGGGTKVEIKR | Kd | < 1 pM |

I have this binder here, PR302064 (antibody, human IgG1, kappa, V domains shown, Humanized variant of PR301777) VH: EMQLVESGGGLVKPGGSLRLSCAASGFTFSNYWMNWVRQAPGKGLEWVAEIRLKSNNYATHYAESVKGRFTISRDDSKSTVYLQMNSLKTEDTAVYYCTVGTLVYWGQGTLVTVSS VL: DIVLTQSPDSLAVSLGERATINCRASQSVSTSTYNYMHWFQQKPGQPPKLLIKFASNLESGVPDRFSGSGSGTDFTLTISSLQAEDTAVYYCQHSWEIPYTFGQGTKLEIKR , and I need its recorded Kd.
< 1 pM

Fill blank: measured Kd of the binder PR302309-18 (antibody, human IgG1, kappa, V domains shown, Humanized variant of PR302309) VH: QVQLVQSGAEVKKPGASVKVSCKASGYTFTNYGMNWVRQAPGQRLEWMGWINTYTGEPIYTDDFKGRVTITRDTSASTAYMELSSLRSEDTAVYYCARSTMITTGGVFAYWGQGTLVTVSS VL: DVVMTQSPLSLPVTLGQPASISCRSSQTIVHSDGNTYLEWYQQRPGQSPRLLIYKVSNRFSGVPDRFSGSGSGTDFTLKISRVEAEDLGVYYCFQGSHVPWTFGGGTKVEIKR is ____.
< 1 pM
